- MEASURED_ON: CGI-58 (Homo sapiens, UniProt Q8WTS1, S237E/W19A/W23A/W27A)
- Sequence (Q8WTS1 1-349 W19A/W23A/W27A/S237E): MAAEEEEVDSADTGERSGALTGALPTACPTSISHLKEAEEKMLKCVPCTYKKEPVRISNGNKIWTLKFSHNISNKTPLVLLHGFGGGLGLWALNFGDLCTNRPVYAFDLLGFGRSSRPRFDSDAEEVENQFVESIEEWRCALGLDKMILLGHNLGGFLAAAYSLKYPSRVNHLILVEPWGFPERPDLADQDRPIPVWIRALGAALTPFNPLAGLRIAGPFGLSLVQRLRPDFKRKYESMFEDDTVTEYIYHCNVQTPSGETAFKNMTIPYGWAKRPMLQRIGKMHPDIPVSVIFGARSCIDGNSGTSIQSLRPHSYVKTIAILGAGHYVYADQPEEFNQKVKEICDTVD
- MEASUREMENT_NOTES: intrinsic tryptophan fluorescence quenching, […] protein, […] °C
MEASUREMENT_KIND: Kd (µM)
Answers are plain numbers, in µM.

Identify measured Kd associated with `CCCCCCCC/C=C\CCCCCCCC(=O)SCCNC(=O)CCNC(=O)[C@H](O)C(C)(C)COP(=O)(O)OP(=O)(O)OC[C@H]1O[C@@H](n2cnc3c(N)ncnc32)[C@H](O)[C@@H]1OP(=O)(O)O`
2.3

Entry source: paper PMC9026008
